Tested on: U251 CNS
testMethodNotes: NCI tumour cell line growth inhibition, 48 h
experimentalReadout: TGI

For the molecule CC(C)N(C(=O)c1ccc(NCc2cc(O)ccc2O)cc1)C(C)C , report TGI.
32.6 µM

Give reported TGI value for O=C1c2ccccc2CCC1(Br)Br
15.9 µM

Tell me measured TGI for O=C1Cc2c(-c3ccccc3)cc(-c3ccc4ccccc4c3)nc2-c2ccccc2N1 please.
> 100 µM

Look up TGI of O=C1CCCCCCCCCCC1CN(Cc1ccccc1)Cc1ccccc1 (centres undefined) and report it.
49.6 µM

Look up and report measured TGI for this entry: [O]=[W](=[O])([OH])[OH]
> 100 µM

For O=C(/C=C/c1ccc(O)cc1)c1cc(O)cc(O)c1 , write its TGI.
27.5 µM

Note down TGI recorded for Cc1ccc(C2SC(N)=Nc3c2c(C)nn3C(=O)c2ccc(Cl)cc2)cc1 (centres undefined)
> 10 µM

Report TGI, nothing else, for this molecule: COc1ccc(C(=O)C(CC2C(=O)CC(C)(C)C(C(=O)C(=O)Nc3c(C)cccc3C)C2=O)c2ccc(OC)cc2)cc1 (centres undefined)
> 100 µM

Indicate its recorded TGI; the molecule in question is CC1=C2[C@@H](c3ccccc3)C3C=CC2(c2ccccc23)N(C(=O)Nc2cccc3ccccc23)C1=O (some centres undefined)
> 100 µM

Determine its reported TGI: Cc1ccc2nc(CC(=O)c3ccc4ccccc4c3)c(=O)[nH]c2c1
> 100 µM

Quickly give me recorded TGI for Cc1ccc(Nc2cc(=O)[nH]c(=O)[nH]2)cc1CS
> 100 µM

For O=C(NCCCCCCNC(=O)NC1OCC(O)C(O)C1O)NC1OCC(O)C(O)C1O (centres undefined) , write its TGI.
> 100 µM

For the molecule Cc1ccc(S(=O)(=O)NC(=O)C#CCOC2CCCCO2)cc1 (centres undefined) , give its reported TGI.
> 100 µM

Tell us which TGI value is on record for C=CCN1C[C@@H](C)N([C@@H](c2ccccc2)c2ccc(C(=O)N(CC)CC)cc2)C[C@@H]1C
> 100 µM

Provide one value: measured TGI of COC(=O)C1=C(OC(=O)/C(=C/c2c(F)cccc2F)c2ccccc2)C(C(=O)OC)[C@@]2(O)[C@@H](C(=O)OC)[C@H](C)C[C@@H]1[C@@H]2C(=O)OC (some centres undefined)
> 100 µM

Supply measured TGI of COc1cc2c3c(c1OCc1ccccc1)NCCC3NCC2 (centres undefined) in your reply.
> 100 µM

Indicate the recorded TGI value for this molecule: COc1ccc(N2C(=O)C3c4[nH]c5cc(Cl)ccc5c4C4CCC(C(C)(C)C)CC4C3C2=O)cc1 (centres undefined)
> 100 µM

State its TGI: CS(=O)(=O)c1ccc(-c2[nH]c3ccc(F)cc3c2/C=N/NC(N)=S)cc1
> 100 µM

Specify TGI for O=C(NCc1cccs1)OC1CC2CCC1C2 (centres undefined) and stop.
> 100 µM

###

System: HOP-92 NSCLC
testMethodNotes: NCI tumour cell line growth inhibition, 48 h
Field: TGI. Provide a value for each of the compounds that follow.

Using the record for COc1ccc2cc(C(=O)/C=C/c3ccco3)ccc2c1 , state its measured TGI.
> 100 µM

Provide measured TGI value, entry: NS(=O)(=O)c1ccc(N=Nc2nc3[nH]cnc(=S)c3[nH]2)cc1
> 100 µM

Please report TGI for the following compound: c1ccc(C2=NN[C@H](c3cn(-c4ccccc4)nc3-c3ccccc3)C2)cc1
8.07 µM
